experiment: Pharmacokinetics assay in rats, intragastric administration, plasma by LC/MS/MS; assay type: in vivo, Sprague-Dawley (SD) rats; conditions: both sexes, Sprague-Dawley, rat, plasma, po, SD rats, 10 mg/kg, read-out: Apparent Distribution Volume Vz/F
# Vd/F values compiled below
MEASUREMENT_LABEL: Vd/F (L/kg)

* CN(c1ncnc2[nH]ccc12)[C@H]1C[C@@H]2CN(C(=O)Nc3nc(OCC(C)(C)O)ns3)C[C@@H]2C1 [Example 99] | 2.76
* CC(=O)N1CC[C@H]2CC(N(C)c3ncnc4[nH]ccc34)C[C@H]2C1 (stereo partly shown) [Example 35] | 10.4
* CN(c1ncnc2[nH]ccc12)[C@@H]1CC2CNC(=O)CC2C1 (stereo partly shown) [Example 148] | 6.99
* CCc1nsc(NC(=O)N2C[C@H]3C[C@H](N(C)c4ncnc5[nH]ccc45)C[C@H]3C2)n1 [Example 48] | 7.2

* * *

assay: Pharmacokinetics assay in rats, intragastric administration, plasma by LC/MS/MS; format: in vivo, Sprague-Dawley (SD) rats; details: both sexes, Sprague-Dawley, rat, plasma, po, SD rats, 10 mg/kg, read-out: Plasma Conc. Cmax
# Cmax values compiled below
MEASUREMENT_LABEL: Cmax (ng/mL)

- CCc1nsc(NC(=O)N2C[C@H]3C[C@H](N(C)c4ncnc5[nH]ccc45)C[C@H]3C2)n1 [Example 48]: 2070
- C[C@H](O)C(=O)N1C[C@H]2C[C@H](N(C)c3ncnc4[nH]ccc34)C[C@H]2C1 [Example 17]: 1480
- CN(c1ncnc2[nH]cc(F)c12)[C@H]1C[C@@H]2CN(C(=O)CO)C[C@@H]2C1 [Example 128]: 1420
- CN(c1ncnc2[nH]ccc12)[C@H]1C[C@@H]2CN(C(=O)CO)C[C@@H]2C1 [Example 6]: 1230

* * *

# Cmax values compiled below
assay: Pharmacokinetics assay in rats, intragastric administration, plasma by LC/MS/MS; assay type: in vivo, Sprague-Dawley (SD) rats; settings: both sexes, Sprague-Dawley, rat, plasma, po, SD rats, 10 mg/kg, read-out: Plasma Conc. Cmax
MEASUREMENT_LABEL: Cmax (ng/mL)

- CN(c1ncnc2[nH]ccc12)[C@H]1C[C@@H]2CN(C(=O)Nc3nc(OCC(C)(C)O)ns3)C[C@@H]2C1 [Example 99]: 2670
- CN(c1ncnc2[nH]ccc12)[C@H]1C[C@H]2CNC(=O)C[C@H]2C1 [Example 40]: 1520
- CN(c1ncnc2[nH]ccc12)[C@H]1C[C@@H]2CN(C(=O)Nc3nc(C4CC4)ns3)C[C@@H]2C1 [Example 49]: 1060
- CN(c1ncnc2[nH]ccc12)[C@@H]1CC2CNC(=O)CC2C1 (stereo partly shown) [Example 148]: 1520
- COc1nsc(NC(=O)N2C[C@H]3C[C@H](N(C)c4ncnc5[nH]ccc45)C[C@H]3C2)n1 [Example 34]: 2670
- CN(c1ncnc2[nH]ccc12)[C@H]1C[C@@H]2CN(C(=O)CCC#N)C[C@@H]2C1 [Example 22]: 2960
- CC(=O)N1CC[C@H]2CC(N(C)c3ncnc4[nH]ccc34)C[C@H]2C1 (stereo partly shown) [Example 35]: 1220

* * *

pIC50: −log10 of the molar value.
For reference, pIC50 measured on JAK1 kinase (Homo sapiens (Human), UniProt P23458):
MEASUREMENT_LABEL: pIC50

* CN(c1ncnc2[nH]ccc12)[C@H]1C[C@@H]2CN(C(=O)CCC#N)C[C@@H]2C1 | 7.80
* C[C@@H](O)C(=O)N1C[C@H]2C[C@H](N(C)c3ncnc4[nH]ccc34)C[C@H]2C1 | 7.32
* CN(c1ncnc2[nH]ccc12)[C@@H]1C[C@H]2CN(C(=O)CO)C[C@@]2(C)C1 (racemic) | 7.52
* COc1nsc(NC(=O)N2C[C@H]3C[C@@H](N(C)c4ncnc5[nH]ccc45)C[C@H]3C2)n1 | 8.40
* CC(=O)N1CC[C@H]2CC(N(C)c3ncnc4[nH]ccc34)C[C@H]2C1 (stereo partly shown) | 8.52
* COc1nsc(NC(=O)N2C[C@H]3C[C@H](N(C)c4ncnc5[nH]ccc45)C[C@H]3C2)n1 | 8.70
* CC(C)C(=O)N1CC[C@H]2C[C@@H](N(C)c3ncnc4[nH]ccc34)C[C@H]2C1 | 6.97
